Every entry's value here was drawn from patent US9133158B2.

Biological target: human CYP11B2 (Homo sapiens)
Sequence (P19099 25-503): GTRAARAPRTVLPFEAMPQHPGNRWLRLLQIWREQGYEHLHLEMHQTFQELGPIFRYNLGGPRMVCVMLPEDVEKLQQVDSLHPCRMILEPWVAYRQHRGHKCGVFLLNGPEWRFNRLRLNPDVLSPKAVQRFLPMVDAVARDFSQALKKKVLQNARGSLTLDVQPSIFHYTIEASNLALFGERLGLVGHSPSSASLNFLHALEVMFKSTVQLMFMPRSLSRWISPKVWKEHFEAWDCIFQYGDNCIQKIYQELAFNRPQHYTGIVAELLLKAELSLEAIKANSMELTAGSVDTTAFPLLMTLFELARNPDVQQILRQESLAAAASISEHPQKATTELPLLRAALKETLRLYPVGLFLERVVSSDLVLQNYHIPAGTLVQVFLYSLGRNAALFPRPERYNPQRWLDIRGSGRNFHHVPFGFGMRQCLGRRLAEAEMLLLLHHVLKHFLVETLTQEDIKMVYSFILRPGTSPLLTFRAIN
Test: G-402 cellular enzyme assay, human CYP11B2 (aldosterone release, HTRF)
Conditions: G-402 cells, 1 μM Deoxycorticosterone
This listing pairs molecules with measured EC50.
Reported property: EC50 (nM)

Molecule: CCS(=O)(=O)N(C)Cc1cncc(N2C(=O)c3ccc(Cl)cc3C2(C)C)c1
Quantity unit: nM
Meas value: 8
--
Molecule: O=C1c2ccc(Cl)cc2CCN1c1cncc2ccccc12
Quantity unit: nM
Meas value: 13.5
--
Molecule: CC(O)c1ccncc1N1CCc2cc(Cl)ccc2C1=O (stereo not drawn)
Quantity unit: nM
Meas value: 343
--
Molecule: CC(C)C(=O)Nc1cncc(N2CCc3cc(Cl)ccc3C2=O)c1
Quantity unit: nM
Meas value: 4580
--
Molecule: CCC(=O)N[C@H]1CCc2c1cncc2N1C(=O)c2ccc(Cl)cc2[C@H]1C (single isomer, unassigned)
Quantity unit: nM
Meas value: 3.4
--
Molecule: O=C1c2ccc(Cl)cc2CCN1c1cncc(Cc2cc(F)ccc2F)c1
Quantity unit: nM
Meas value: 8.4
--
Molecule: CC(O)c1c(F)cncc1N1CCc2cc(Cl)ccc2C1=O (stereo not drawn)
Quantity unit: nM
Meas value: 935
--
Molecule: CC1Cc2cccc(Cl)c2C(=O)N1c1cccnc1 (stereo not drawn)
Quantity unit: nM
Meas value: 775
--
Molecule: O=C(Nc1cncc(N2CCc3cc(Cl)ccc3C2=O)c1)NC1CCCCC1
Quantity unit: nM
Meas value: 4440
--
Molecule: Cn1cc(Cc2cncc(N3C(=O)c4ccc(Cl)cc4C3(C)C)c2)cn1
Quantity unit: nM
Meas value: 0.4
--
Molecule: O=C1c2ccc(Cl)cc2C(Cc2ccccc2)N1c1cccnc1 (stereo not drawn)
Quantity unit: nM
Meas value: 1070
--
Molecule: O=C1c2ccc(Cl)cc2CCN1c1cncc(-c2ccc(Cl)c(F)c2)c1
Quantity unit: nM
Meas value: 115
